experimentalSystem: human PAI-1, active, wild-type, non-glycosylated (E. coli-derived) (human, UniProt P05121 24-402)
Sequence (P05121 24-402): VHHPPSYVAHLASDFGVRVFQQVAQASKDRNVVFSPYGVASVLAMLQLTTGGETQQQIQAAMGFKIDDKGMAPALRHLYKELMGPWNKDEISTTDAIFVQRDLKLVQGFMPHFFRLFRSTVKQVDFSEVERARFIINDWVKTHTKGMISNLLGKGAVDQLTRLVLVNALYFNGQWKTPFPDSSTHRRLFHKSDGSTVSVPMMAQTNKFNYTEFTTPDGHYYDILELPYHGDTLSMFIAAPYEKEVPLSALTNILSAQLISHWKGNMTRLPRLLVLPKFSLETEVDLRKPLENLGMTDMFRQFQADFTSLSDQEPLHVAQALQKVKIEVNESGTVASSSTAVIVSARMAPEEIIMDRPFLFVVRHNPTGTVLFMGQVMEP
assayRemarks: cell-based or functional assay
quantity: IC50 chromogenic
Kindly format the answer as number then unit.

// solved cases for IC50 chromogenic follow
binder	testResult
Antibody 10, scFv (scFv, V domains shown) VH: QVQLQQSGAEVKKPGSSVKVSCKASGGTFSSYAISWVRQAPGQGLEWMGGIIPTFGTANYAQKFQGRVTITADESTSTAYMELSSLRSEDTAVYYCAREKRQWLEGHFDYWGRGTPVTVSS VL: DIQMTQSPSFLSASIGDRVAITCRASEGIYHSLAWYQQKPGKAPKLLIYRASSLASGAPSRFSGSGSGTDFTLTISSLQPDDFATYYCQQYSNYPLTFGGGTRLEIK	2.2 nM
Antibody 02, scFv (scFv, V domains shown) VH: QVQLVQSGAEVKKPGSSVKVSCKASGGTFSSYAISWVRQAPGQGLEWMGGIIPTFGTANYAQKFQGRVTITADESTSTAYMELSSLRSEDTAVYYCAREKRQWLEGHFDYWGRGTLVTVSS VL: DIQMTQSPSTLSASVGDRVTITCRASEGIYHSLAWYQQKPGKAPKLLIYKASSLASGVPSRFSGSGSGTEFTLTISSLQPDDFATYYCQQYSDYPLTFGGGTKVEIK	0.6 nM
Antibody 07, scFv (scFv, V domains shown) VH: QVQLQQSGAEVKKPGSSVKVSCKASGGTFSSYAISWVRQAPGQGLEWVGGIIPTFGTANYAQKFQGRVTITADESTSTAYMELSGLRSEDTAVYYCAREKRQWLEGHFDYWGRGTPVTVSS VL: DIQMAQSPSFLSASIGDRVTITCRASEGIYHELAWYQQKPGKAPKLLIYRASSLASGAPSRFSGSGSGTDFTLTISSLQPDDFATYYCQQYSNYPLTFGGGTKLEIK	187 nM
Antibody 21, scFv (scFv, V domains shown) VH: PVQLQQSGAEVKKPGSSVKVSCKASGGTFSSYAISWVRQAPGQGLEWMGGIIPTFGTANYAQKFQGRVTITADESTSTAYMELSGLRSEDTAVYYCAREKRQWLEGHFDYWGRGTPVTVSS VL: DIQMAQSPSFLSASIGDRVTITCRASEGIYHNLAWYQQKPGKAPKLLIYRASSLASGAPSRFSGSGSGTDFTLTISSLQPDDFATYYCQQYSNYPLTFGGGTKLEIK	4.1 nM

(Q) For the binder Antibody 27, IgG1, not germlined (antibody, V domains shown, whole IgG1; also called Ab 27) VH: QVQLQQSGAEVKKPGSSVKVSCKASGGAFSSYAISWVRQAPGQGLEWMGGIIPTFGTANYAQKFQGRVTITADESTSTAYMELSGLRSEDTAVYYCAREKRQWLEGHFDYWGRGTPVTVSS VL: DIQMTQSPSFLSASIGDRVTITCRASEGIYHNLAWYQQKPGKAPKLLIYRASSLASGAPSRFSGSGSGTDFTLTISSLQPDDFATYYCQQYSNYPLTFGGGTKLEIK , give its measured IC50 chromogenic value.
(A) 4.9 nM

(Q) For the binder Antibody 17, scFv (scFv, V domains shown) VH: QVQLQQSGAEVKKPGSSVKVSCKASGGTFSSYAISWVRQAPGQGLEWMGGIIPTFGTANYAQKFQGRVTITADESTSTAYMELSGLRSEDTAVYYCAREKRQWLEGHFDYWGRGTPVTVSS VL: DIQMTQSPSFLSASIGDRVTITCRASEGIYHELAWYQQKPGKAPKLLIYRASSLASGAPSRFSGSGSGTDFTLTISSLQPDDFATYYCQQYSNYPLTFGGGTKLEIK , give its measured IC50 chromogenic value.
(A) 71.5 nM
